details: in ethyl acetate, 315.15 K
measured attribute: solubility (mole fraction)

Reported solubility (mole fraction), compound `Cc1cc(C#N)c(Nc2ccccc2[N+](=O)[O-])s1` : ____
0.0442

* * *

settings: in ethanol, 306.15 K
measured attribute: solubility (mole fraction)
I only need the number, thanks.

Reported solubility (mole fraction), molecule `Cc1cc(C#N)c(Nc2ccccc2[N+](=O)[O-])s1` : ____
0.00214

* * *

conditions: in ethyl acetate, 296.15 K
measured attribute: solubility (mole fraction)
I only need the number, thanks.

Reported solubility (mole fraction), compound `Cc1cc(C#N)c(Nc2ccccc2[N+](=O)[O-])s1` : ____
0.0227

* * *

details: in acetic acid, 293.15 K
measured attribute: solubility (mole fraction)
I only need the number, thanks.

Reported solubility (mole fraction), compound `Cc1cc(C#N)c(Nc2ccccc2[N+](=O)[O-])s1` : ____
0.00487

* * *

conditions: in ethanol, 325.15 K
measured attribute: solubility (mole fraction)
I only need the number, thanks.

Reported solubility (mole fraction), compound `Cc1cc(C#N)c(Nc2ccccc2[N+](=O)[O-])s1` : ____
0.00528

* * *

details: in methanol, 311.15 K
measured attribute: solubility (mole fraction)
I only need the number, thanks.

Reported solubility (mole fraction), molecule `Cc1cc(C#N)c(Nc2ccccc2[N+](=O)[O-])s1` : ____
0.00291

* * *

details: in DMSO, 328.15 K
measured attribute: solubility (mole fraction)
I only need the number, thanks.

Reported solubility (mole fraction), molecule `Cc1cc(C#N)c(Nc2ccccc2[N+](=O)[O-])s1` : ____
0.123

* * *

details: in methanol, 297.15 K
measured attribute: solubility (mole fraction)

Reported solubility (mole fraction), compound `Cc1cc(C#N)c(Nc2ccccc2[N+](=O)[O-])s1` : ____
0.00145

* * *

settings: in acetone, 302.15 K
measured attribute: solubility (mole fraction)
I only need the number, thanks.

Reported solubility (mole fraction), compound `Cc1cc(C#N)c(Nc2ccccc2[N+](=O)[O-])s1` : ____
0.0377

* * *

details: in acetic acid, 307.15 K
measured attribute: solubility (mole fraction)
I only need the number, thanks.

Reported solubility (mole fraction), compound `Cc1cc(C#N)c(Nc2ccccc2[N+](=O)[O-])s1` : ____
0.00881

* * *

settings: in ethanol, 292.15 K
measured attribute: solubility (mole fraction)
I only need the number, thanks.

Reported solubility (mole fraction), compound `Cc1cc(C#N)c(Nc2ccccc2[N+](=O)[O-])s1` : ____
0.00106

* * *

conditions: in acetic acid, 333.15 K
measured attribute: solubility (mole fraction)
I only need the number, thanks.

Reported solubility (mole fraction), molecule `Cc1cc(C#N)c(Nc2ccccc2[N+](=O)[O-])s1` : ____
0.0306

* * *

details: in ethyl acetate, 333.15 K
measured attribute: solubility (mole fraction)
I only need the number, thanks.

Reported solubility (mole fraction), compound `Cc1cc(C#N)c(Nc2ccccc2[N+](=O)[O-])s1` : ____
0.0858

* * *

details: in DMSO, 316.15 K
measured attribute: solubility (mole fraction)
I only need the number, thanks.

Reported solubility (mole fraction), molecule `Cc1cc(C#N)c(Nc2ccccc2[N+](=O)[O-])s1` : ____
0.0913

* * *

details: in acetone, 292.15 K
measured attribute: solubility (mole fraction)

Reported solubility (mole fraction), compound `Cc1cc(C#N)c(Nc2ccccc2[N+](=O)[O-])s1` : ____
0.0262
